# testSystem: full-length mouse SNX27 (mSNX27FL) (Mus musculus)
# Construct: DNA encoding full-length mouse SNX27 (mSNX27FL hereafter) was inserted into the pMCSG7 vector; made in house; host or cells: Escherichia coli BL21 CodonPlus (DE3)
# measurementProtocol: ITC, hSNX1/2 peptides against mSNX27FL
# Type: binding
# conditionDetails: 25°C, 50 mM HEPES pH 7.5, 200 mM NaCl, 5% glycerol, 1 mM β-ME, 800 μM peptide titrated into 20 μM mSNX27FL, single-site fit, mean of at least 2 experiments, read-out: Kd
Where no end group is shown, it is not given here.
pKd values, listed per item
// pKd: -log10(molar conc.)

EAGDSDTEGEDIFTGAA [SNX1_35-51] ... 4.48

Here is another sequence to look at.
Consider the sequence TEVVLDDDREDLFAEATEEVS [SNX2_62-82] . State its measured pKd. 4.65

Data credit: paper PMC9038204
